Target: BaF3-FLT3-ITD-F691L (Homo sapiens, UniProt P36888, INS600HVDFREYEYD/F691L, cells depend on it)
Sequence (P36888 with tags, fused parts or gaps INS600HVDFREYEYD/F691L): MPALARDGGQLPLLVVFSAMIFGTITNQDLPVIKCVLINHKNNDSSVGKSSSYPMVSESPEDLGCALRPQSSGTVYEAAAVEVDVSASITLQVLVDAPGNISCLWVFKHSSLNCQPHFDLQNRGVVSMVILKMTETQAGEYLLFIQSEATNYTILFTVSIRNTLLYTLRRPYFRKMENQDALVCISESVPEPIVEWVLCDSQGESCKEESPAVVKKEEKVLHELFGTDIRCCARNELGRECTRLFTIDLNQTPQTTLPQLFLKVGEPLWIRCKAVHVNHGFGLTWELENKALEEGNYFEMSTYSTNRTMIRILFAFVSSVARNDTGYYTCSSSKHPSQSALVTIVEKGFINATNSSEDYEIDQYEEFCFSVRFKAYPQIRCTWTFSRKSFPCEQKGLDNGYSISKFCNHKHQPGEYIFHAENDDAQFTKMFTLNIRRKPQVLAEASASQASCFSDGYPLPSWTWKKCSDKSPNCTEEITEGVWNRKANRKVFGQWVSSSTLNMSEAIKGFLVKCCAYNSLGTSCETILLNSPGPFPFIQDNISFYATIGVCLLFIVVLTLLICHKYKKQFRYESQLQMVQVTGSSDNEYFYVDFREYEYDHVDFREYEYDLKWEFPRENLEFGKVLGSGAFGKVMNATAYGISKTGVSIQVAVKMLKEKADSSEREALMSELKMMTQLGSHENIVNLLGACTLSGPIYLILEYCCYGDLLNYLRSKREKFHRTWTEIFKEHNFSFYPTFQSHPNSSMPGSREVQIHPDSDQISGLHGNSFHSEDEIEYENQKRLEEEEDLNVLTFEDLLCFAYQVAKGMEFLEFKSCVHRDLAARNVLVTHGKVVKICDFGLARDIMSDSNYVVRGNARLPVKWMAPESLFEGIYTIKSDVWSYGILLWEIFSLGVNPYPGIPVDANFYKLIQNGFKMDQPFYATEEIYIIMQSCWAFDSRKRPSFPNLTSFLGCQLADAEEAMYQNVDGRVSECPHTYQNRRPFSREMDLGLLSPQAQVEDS
Test: CTB viability assay CS0047, BaF3-FLT3-ITD-F691L
Type: cell-based, murine
Details: BaF3-FLT3-ITD-F691L cells, CellTiter Blue viability, 72 hours; read-out: Cell Assay: CS0047:BaF3-FLT3-ITD-F691L CTB:IC50
Measured Attribute: GI50

Exercise: Request the reported GI50 associated with "Cc1nc(Nc2cn(C)cn2)ncc1-c1ccc(CC(=O)Nc2cc(C3(C(F)(F)F)CC3)on2)c(F)c1"
Key: 10 to 50 nM
